B1: library; a variant is named by its letters at N, in order (parent)
chain: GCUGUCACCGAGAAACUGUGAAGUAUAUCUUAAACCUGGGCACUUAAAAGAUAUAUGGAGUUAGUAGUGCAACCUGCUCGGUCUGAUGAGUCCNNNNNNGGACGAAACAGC

Variants of: B1
Experiment: normalized RNA/DNA level without ligand (relative to sTRSVctl = 100) (log10 (% of sTRSVctl)); HEK293T; ligand: cyclic di-GMP (c-di-GMP-II aptamer); higher = less ribozyme self-cleavage, higher mRNA level
Settings: reporter: mCherry (pCS4076), ligand present: no
Measure: normalized RNA/DNA level without ligand (log10)

Sample answers from the record:
GCUGUCACCGAGAAACUGUGAAGUAUAUCUUAAACCUGGGCACUUAAAAGAUAUAUGGAGUUAGUAGUGCAACCUGCUCGGUCUGAUGAGUCCCUCGGGGGACGAAACAGC [CUCGGG] : 1.76
GCUGUCACCGAGAAACUGUGAAGUAUAUCUUAAACCUGGGCACUUAAAAGAUAUAUGGAGUUAGUAGUGCAACCUGCUCGGUCUGAUGAGUCCAUCUAAGGACGAAACAGC [AUCUAA] : 1.52
GCUGUCACCGAGAAACUGUGAAGUAUAUCUUAAACCUGGGCACUUAAAAGAUAUAUGGAGUUAGUAGUGCAACCUGCUCGGUCUGAUGAGUCCUCCAGGGGACGAAACAGC [UCCAGG] : 1.81
GCUGUCACCGAGAAACUGUGAAGUAUAUCUUAAACCUGGGCACUUAAAAGAUAUAUGGAGUUAGUAGUGCAACCUGCUCGGUCUGAUGAGUCCUUGUGUGGACGAAACAGC [UUGUGU] : 1.72
GCUGUCACCGAGAAACUGUGAAGUAUAUCUUAAACCUGGGCACUUAAAAGAUAUAUGGAGUUAGUAGUGCAACCUGCUCGGUCUGAUGAGUCCUACAUUGGACGAAACAGC [UACAUU] : 1.59

Respectfully, I request normalized RNA/DNA level without ligand (log10) for each entry included below.
1. GCUGUCACCGAGAAACUGUGAAGUAUAUCUUAAACCUGGGCACUUAAAAGAUAUAUGGAGUUAGUAGUGCAACCUGCUCGGUCUGAUGAGUCCACGGCCGGACGAAACAGC [ACGGCC]
2. GCUGUCACCGAGAAACUGUGAAGUAUAUCUUAAACCUGGGCACUUAAAAGAUAUAUGGAGUUAGUAGUGCAACCUGCUCGGUCUGAUGAGUCCUAUGCUGGACGAAACAGC [UAUGCU]
3. GCUGUCACCGAGAAACUGUGAAGUAUAUCUUAAACCUGGGCACUUAAAAGAUAUAUGGAGUUAGUAGUGCAACCUGCUCGGUCUGAUGAGUCCUAGAUGGGACGAAACAGC [UAGAUG]
4. GCUGUCACCGAGAAACUGUGAAGUAUAUCUUAAACCUGGGCACUUAAAAGAUAUAUGGAGUUAGUAGUGCAACCUGCUCGGUCUGAUGAGUCCCGCCUCGGACGAAACAGC [CGCCUC]
5. GCUGUCACCGAGAAACUGUGAAGUAUAUCUUAAACCUGGGCACUUAAAAGAUAUAUGGAGUUAGUAGUGCAACCUGCUCGGUCUGAUGAGUCCCUAAUCGGACGAAACAGC [CUAAUC]
6. GCUGUCACCGAGAAACUGUGAAGUAUAUCUUAAACCUGGGCACUUAAAAGAUAUAUGGAGUUAGUAGUGCAACCUGCUCGGUCUGAUGAGUCCGUCGGCGGACGAAACAGC [GUCGGC]
7. GCUGUCACCGAGAAACUGUGAAGUAUAUCUUAAACCUGGGCACUUAAAAGAUAUAUGGAGUUAGUAGUGCAACCUGCUCGGUCUGAUGAGUCCUUCCAGGGACGAAACAGC [UUCCAG]

Ans.
[1.78, 1.72, 1.53, 1.71, 1.71, 1.65, 1.76]

Respectfully, I request normalized RNA/DNA level without ligand (log10) for each entry included below.
1. GCUGUCACCGAGAAACUGUGAAGUAUAUCUUAAACCUGGGCACUUAAAAGAUAUAUGGAGUUAGUAGUGCAACCUGCUCGGUCUGAUGAGUCCUUCGCUGGACGAAACAGC [UUCGCU]
2. GCUGUCACCGAGAAACUGUGAAGUAUAUCUUAAACCUGGGCACUUAAAAGAUAUAUGGAGUUAGUAGUGCAACCUGCUCGGUCUGAUGAGUCCCUAGAUGGACGAAACAGC [CUAGAU]
3. GCUGUCACCGAGAAACUGUGAAGUAUAUCUUAAACCUGGGCACUUAAAAGAUAUAUGGAGUUAGUAGUGCAACCUGCUCGGUCUGAUGAGUCCGCCCGCGGACGAAACAGC [GCCCGC]

Ans.
[1.77, 1.65, 1.76]
